# experiment: Cytotoxicity in the HIV-1 assay (MTS cell viability)
# applied.conditions: human, CEM-SS cells
property.measured: viability at 10 micrograms per ml (%)
Please give a number only; it is taken to be in %.

Input: Request the reported viability at 10 micrograms per ml associated with NCC(=O)N1CCC[C@H]1C(=O)N[C@@H](CCC(=O)O)C(=O)O
Output: 100
